Data origin: patent US8937072B2

Tested on: cucumber downy mildew
Experiment: Protectant activity in vivo (whole plant) against cucumber downy mildew
Conditions: dose 400 mg/L
Form field: protectant activity against cucumber downy mildew in vivo (one value per entry).

Some solved cases for reference:
N#Cc1cc([N+](=O)[O-])cc(Br)c1Nc1c(F)c(C#N)c(F)c(F)c1C#N    100%
N#Cc1cc([N+](=O)[O-])cc(Br)c1Nc1c(F)c(F)c(C#N)c(F)c1C#N    100%
N#Cc1c(Cl)c(Cl)c(Nc2ccc(C(F)(F)F)cc2Cl)c(C#N)c1Cl    100%

Data request: Look at this molecule and give its reported protectant activity against cucumber downy mildew in vivo. Cc1ccnc(Nc2c(Cl)c(Cl)c(C#N)c(C#N)c2Cl)c1
Data returned: 100%

Data request: Do the same for N#Cc1c(Cl)c(Cl)c(C#N)c(Nc2cc(Cl)cnc2Cl)c1Cl please
Data returned: 100%

Data request: Do the same for N#Cc1c(Cl)c(Cl)c(C#N)c(Nc2ccc(C(F)(F)F)cc2Cl)c1Cl please
Data returned: 100%

###

Test system: corn rust
Test: Protectant activity in vivo (whole plant) against corn rust
Settings: 100 mg/L
measured parameter: the protectant activity (%) against corn rust
Field: numeric (%). Do not append units.

Some solved cases for reference:
N#Cc1c(Cl)c(Cl)c(Nc2c(Cl)cncc2Cl)c(Cl)c1C#N    100
N#Cc1c(Cl)c(Cl)c(Nc2c(F)cc([N+](=O)[O-])cc2Cl)c(C#N)c1Cl    80
N#Cc1c(Cl)c(Cl)c(Nc2c(Br)cc([N+](=O)[O-])cc2Br)c(C#N)c1Cl    85
N#Cc1c(Cl)c(Cl)c(Nc2c(Cl)cc([N+](=O)[O-])cc2Br)c(C#N)c1Cl    100
N#Cc1c(Cl)c(Cl)c(Nc2cc(Cl)c(C(F)(F)F)cc2Cl)c(C#N)c1Cl    100
N#Cc1c(Cl)c(Cl)c(C#N)c(Nc2c(Cl)cc([N+](=O)[O-])cc2Br)c1Cl    90

Data request: Look at this compound and give its reported the protectant activity (%) against corn rust. CN(C)c1c(Cl)c(Nc2c(Cl)cc([N+](=O)[O-])cc2Cl)c(C#N)c(Cl)c1C#N
Data returned: 100

Data request: Do the same for COc1c(Cl)c(Nc2c(Cl)cc([N+](=O)[O-])cc2Cl)c(C#N)c(Cl)c1C#N please
Data returned: 95

Data request: Do the same for COC(=O)c1cc(Cl)c(Nc2c(Cl)c(Cl)c(C#N)c(Cl)c2C#N)c(Cl)c1 please
Data returned: 60

###

Tested on: corn rust
Experiment: Protectant activity in vivo (whole plant) against corn rust
Conditions: 100 mg/L
Form field: the protectant activity (%) against corn rust (one value per entry).
Field: numeric (%). Do not append units.

Some solved cases for reference:
N#Cc1c(Cl)c(Cl)c(C#N)c(Nc2c(Br)cc([N+](=O)[O-])cc2Br)c1Cl [Compound C-41]    100
N#Cc1c(Cl)c(Cl)c(Nc2c(Cl)cc([N+](=O)[O-])cc2Cl)c(C#N)c1Cl [Compound B-54]    90
N#Cc1c(Cl)c(Cl)c(Nc2c(Cl)cc([N+](=O)[O-])cc2Br)c(Cl)c1C#N [Compound A-46]    95

For the next question, use this compound.
Data request: Look at this compound and give its reported the protectant activity (%) against corn rust. N#Cc1c(Cl)c(Cl)c(C#N)c(Nc2c(Cl)cc([N+](=O)[O-])cc2Cl)c1Cl [Compound C-40]
Data returned: 100

###

System: rice blast
Assay: microbe, parasite or virus in culture
Assay type: cell-based
Details: Pyricularia oryzae, read-out: inhibition rate against rice blast
Form field: inhibition at 25 µg/mL (one value per entry).
Field: numeric (%). Do not append units.

Some solved cases for reference:
Cc1ccc(Nc2c(Cl)c(Cl)c(C#N)c(Cl)c2C#N)cc1    0
N#Cc1c(Cl)c(Cl)c(Cl)c(Cl)c1C#N    50
N#Cc1c(F)c(Cl)c(Nc2ccc([N+](=O)[O-])cc2)c(C#N)c1F    0
N#Cc1c(Cl)c(Cl)c(Nc2ccccc2)c(C#N)c1Cl    0

Data request: API: value(readout= inhibition at 25 µg/mL, system= rice blast, query= N#Cc1c(F)c(F)c(Nc2c(Cl)c(F)nc(F)c2Cl)c(F)c1C#N )
Data returned: 80

Data request: Do the same for N#Cc1c(F)c(F)c(Nc2ccc(Cl)c(Cl)c2)c(C#N)c1F please
Data returned: 0

Data request: Do the same for CN(C)c1ccc(Nc2c(Cl)c(F)c(C#N)c(F)c2C#N)cc1 please
Data returned: 0

Data request: Do the same for N#Cc1c(Cl)c(Cl)c(Nc2ccc(Cl)cc2)c(C#N)c1Cl please
Data returned: 0

Data request: Do the same for CCOc1ccccc1Nc1c(F)c(F)c(C#N)c(C#N)c1F please
Data returned: 0

Data request: Do the same for CN(C)c1ccc(Nc2c(Cl)c(Cl)c(C#N)c(Cl)c2C#N)cc1 please
Data returned: 0

Data request: Do the same for N#Cc1c(Cl)c(Cl)c(C#N)c(Cl)c1Cl please
Data returned: 0

Data request: Do the same for N#Cc1ccc(Nc2c(Cl)c(F)c(C#N)c(F)c2C#N)cc1 please
Data returned: 0

###

Tested on: cucumber downy mildew
Assay: Protectant activity in vivo (whole plant) against cucumber downy mildew
Details: Cucumis sativus, 168 h; 50 mg/L; read-out: the protectant activity (%) against cucumber downy mildew
measured parameter: pest or weed control at 50 µg/mL (%)
Field: numeric (%). Do not append units.

CN(C)c1ccc(Nc2c(Cl)c(F)c(C#N)c(F)c2C#N)cc1 [KC25]    0

For the next question, use this compound.
Data request: Look at this compound and give its reported pest or weed control at 50 µg/mL. N#Cc1c(Cl)c(Cl)c(Nc2ccc(Cl)cc2)c(C#N)c1Cl [KC2]
Data returned: 0

###

System: rice blast
Test: microbe, parasite or virus in culture
Assay type: cell-based
Settings: Pyricularia oryzae, read-out: the inhibition rate against rice blast (%) 0.3 mg/L
measured parameter: inhibition at 0.3 µg/mL (%)
Field: numeric (%). Do not append units.

Some solved cases for reference:
N#Cc1c(Cl)c(Cl)c(Cl)c(C#N)c1Cl    100
Cc1cc(Nc2c(Cl)c(Cl)c(C#N)c(Cl)c2C#N)c(C)cc1Cl    0
COc1ccc(Nc2c(F)c(F)c(C#N)c(F)c2C#N)cc1    0

For the next question, use this molecule.
Data request: API: value(readout= inhibition at 0.3 µg/mL, system= rice blast, query= N#Cc1c(Cl)c(Cl)c(Nc2ccccc2)c(C#N)c1Cl )
Data returned: 0

###

Test system: cucumber downy mildew
Assay: Protectant activity in vivo (whole plant) against cucumber downy mildew
Conditions: Cucumis sativus, 168 h; dose 50 mg/L; read-out: protectant activity against cucumber downy mildew in vivo
Form field: pest or weed control at 50 µg/mL (one value per entry).
Field: numeric (%). Do not append units.

Some solved cases for reference:
N#Cc1c(F)c(F)c(C#N)c(Nc2ccc(O)cc2)c1F    0
N#Cc1c(Cl)c(Cl)c(Nc2ccc([N+](=O)[O-])cc2)c(C#N)c1Cl    20
Cc1ccc(Nc2c(F)c(F)c(C#N)c(F)c2C#N)cc1    30

Data request: Look at this compound and give its reported pest or weed control at 50 µg/mL. N#Cc1c(F)c(F)c(Nc2ccccc2)c(C#N)c1F
Data returned: 10

Data request: Do the same for COc1ccc(Nc2c(F)c(F)c(C#N)c(F)c2C#N)cc1 please
Data returned: 10

Data request: Do the same for N#Cc1c(Cl)c(Cl)c(C#N)c(Nc2ccccc2)c1Cl please
Data returned: 10

Data request: Do the same for N#Cc1c(F)c(F)c(Nc2ccc([N+](=O)[O-])cc2)c(C#N)c1F please
Data returned: 0

###

System: cucumber gray mold
Test: Activity in vitro (96-well, High Through Put): inhibition rate against cucumber gray mold
Type: cell-based
Details: 8.3 mg/L; read-out: the inhibition rate against cucumber gray mold (%)
measured parameter: inhibition at 8.3 µg/mL
Could you write the number and then its unit?

N#Cc1c(F)c(F)c(Nc2ccc([N+](=O)[O-])cc2)c(C#N)c1F [KC11]    50%

Data request: Look at this compound and give its reported inhibition at 8.3 µg/mL. N#Cc1c(F)c(F)c(Nc2ccccc2)c(F)c1C#N [KC13]
Data returned: 0%

Data request: Do the same for Cc1ccc(Nc2c(F)c(F)c(C#N)c(F)c2C#N)cc1 [KC9] please
Data returned: 80%

Data request: Do the same for N#Cc1c(Cl)c(Cl)c(Nc2ccccc2)c(Cl)c1C#N [KC14] please
Data returned: 0%

Data request: Do the same for COc1ccc(Nc2c(Cl)c(F)c(C#N)c(F)c2C#N)cc1 [KC20] please
Data returned: 0%

Data request: Do the same for COc1ccc(Nc2c(Cl)c(Cl)c(C#N)c(Cl)c2C#N)cc1 [KC4] please
Data returned: 100%

Data request: Do the same for CN(C)c1ccc(Nc2c(F)c(F)c(C#N)c(F)c2C#N)cc1 [KC24] please
Data returned: 0%
